Values from ChEMBL document CHEMBL4689842

# Test system: Fibroblast
# TEST: Multiplex assay against human fibroblast
# Assay type: toxicity, cell-based
# STATED_CONDITIONS: 48 h, 1 µM, compound concentration 1 uM, replicate 1
Threshold-based label: Population Pyknosed Nuclei (%) under 20% gives t, Population Pyknosed Nuclei (%) not under 20% gives f.

Answered examples (5):
{"COMPOUND": "CNc1cc(Oc2cc(C(=O)Nc3cc(N4CCN(C)CC4)cc(C(F)(F)F)c3)ccc2C)ncn1", "CAT": "t"}
{"COMPOUND": "Cc1ccc(C(=O)Nc2cccc(C(F)(F)F)c2)cc1Nc1nc(-c2cccnc2)nc2c1cnn2C", "CAT": "t"}
{"COMPOUND": "S=C(NCCCc1c[nH]cn1)NCCCN(Cc1ccc(Cl)c(Cl)c1)c1ccc(Br)cn1", "CAT": "t"}
{"COMPOUND": "CN(C)C(=O)C(CCN1CCC(O)(c2ccc(Cl)cc2)CC1)(c1ccccc1)c1ccccc1.Cl [LOPERAMIDE HYDROCHLORIDE]", "CAT": "f"}
{"COMPOUND": "O=C(Nc1ccc(-n2nc(-c3cccnc3)cc2C(F)(F)F)cn1)c1ccc(-c2ccccc2)c(F)c1", "CAT": "f"}

Ask: is_below(Population Pyknosed Nuclei (%), 20%) for CCc1cccc(CC)c1NC(=O)c1nn(C)c2c1CCc1cnc(Nc3ccc(C(=O)NC4CCN(C)CC4)cc3OC(F)(F)F)nc1-2 ?
Result: f

Ask: is_below(Population Pyknosed Nuclei (%), 20%) for Cc1cc(C)c(S(=O)(=O)N(Cc2ccc(-c3cccc(S(C)(=O)=O)c3)cc2)Cc2ccc(C(F)(F)F)o2)c(C)c1 ?
Result: t

Ask: is_below(Population Pyknosed Nuclei (%), 20%) for CCCn1c(=O)c2[nH]c(-c3cnn(Cc4cccc(C(F)(F)F)c4)c3)nc2n(CC)c1=O ?
Result: t

Ask: is_below(Population Pyknosed Nuclei (%), 20%) for O=C1NC(=O)C(c2cnc3ccccn23)=C1c1cn2c3c(cc(F)cc13)CN(C(=O)N1CCCCC1)CC2 ?
Result: f

Ask: is_below(Population Pyknosed Nuclei (%), 20%) for CCCS(=O)(=O)c1nc(NC2CC2)cc(-c2ccc3c(ccn3C3CC(C)(C)NC(C)(C)C3)c2)n1 ?
Result: f

Ask: is_below(Population Pyknosed Nuclei (%), 20%) for CN1CCC(=C2c3ccccc3CC(=O)c3sccc32)CC1.O=C(O)/C=C/C(=O)O [KETOTIFEN FUMARATE] ?
Result: t

Ask: is_below(Population Pyknosed Nuclei (%), 20%) for CCN1CCN(Cc2ccc(Nc3ncc(F)c(-c4cc(F)c5nc(C)n(C(C)C)c5c4)n3)nc2)CC1.CS(=O)(=O)O ?
Result: t

Ask: is_below(Population Pyknosed Nuclei (%), 20%) for CN1C2CCC1CC(OC(c1ccc(F)cc1)c1ccc(F)cc1)C2.Cl (stereo unspecified) ?
Result: t

====

# Tested on: U2OS
# TEST: Multiplex assay against U2OS
# Format: toxicity, cell-based
# STATED_CONDITIONS: human, 12 h, 10 µM, compound concentration 10 uM, replicate 2
Threshold-based label: Population Tubulin-Different-Phenotype (%) under 10% gives class 1, Population Tubulin-Different-Phenotype (%) not under 10% gives class 0.

Answered examples (5):
{"COMPOUND": "Cc1cn(-c2cc(NC(=O)c3ccc(C)c(Nc4nccc(-c5cccnc5)n4)c3)cc(C(F)(F)F)c2)cn1", "CAT": "class 0"}
{"COMPOUND": "CNc1cc(Oc2cc(C(=O)Nc3cc(N4CCN(C)CC4)cc(C(F)(F)F)c3)ccc2C)ncn1", "CAT": "class 0"}
{"COMPOUND": "CN1CCC(=C2c3ccccc3CC(=O)c3sccc32)CC1.O=C(O)/C=C/C(=O)O [KETOTIFEN FUMARATE]", "CAT": "class 0"}
{"COMPOUND": "CCCS(=O)(=O)c1nc(NC2CC2)cc(-c2ccc3c(ccn3C3CC(C)(C)NC(C)(C)C3)c2)n1", "CAT": "class 0"}
{"COMPOUND": "O=C1N/C(=N/c2ccccc2F)S/C1=C\\c1ccc(C(=O)O)cc1", "CAT": "class 1"}

Ask: is_below(Population Tubulin-Different-Phenotype (%), 10%) for O=C(Nc1ccc(-n2nc(-c3cccnc3)cc2C(F)(F)F)cn1)c1ccc(-c2ccccc2)c(F)c1 ?
Result: class 1

Ask: is_below(Population Tubulin-Different-Phenotype (%), 10%) for COc1cccc2cc(-c3nc([C@H]4CC[C@H](C(=O)O)CC4)n4ncnc(N)c34)[nH]c12 ?
Result: class 0

Ask: is_below(Population Tubulin-Different-Phenotype (%), 10%) for CCN1CCN(c2ccc(Nc3cc(N(C)C(=O)Nc4c(Cl)c(OC)cc(OC)c4Cl)ncn3)cc2)CC1 ?
Result: class 0
